Value source: patent EP0325571B1

test system: mice; assay: Acute toxicity in mice, i.v. bolus; type: in vivo; details: lowest dose where 4 mice of 4 tested died within 5 minutes after i.v. bolus
OBSERVABLE: Lethal dose (mg/kg)

>>> value_reported("CN(CCC(c1ccccc1)c1ccccc1O)C(C)(C)C (stereo not shown)")
20
>>> value_reported("COc1ccccc1C(CCN(C(C)C)C(C)C)c1ccccc1 (stereo not shown)")
10
>>> value_reported("CC(C)N(CCC(c1ccccc1)c1ccccc1O)C(C)C (racemic)")
20
>>> value_reported("CC(C)N(CCC(c1ccccc1O)c1ccccc1O)C(C)C")
10
>>> value_reported("CC(CC(c1ccccc1)c1ccccc1)NC(C)(C)C (stereo not shown) [Terodiline, terodiline, reference compound]")
20
>>> value_reported("CC(C)N(CCC(c1ccccc1)c1cc(O)ccc1O)C(C)C (stereo not shown)")
50
>>> value_reported("COc1ccccc1C(CCN(C)C(C)(C)C)c1ccccc1 (stereo not shown)")
20
>>> value_reported("COc1ccccc1C(CCN(C)C)c1ccccc1 (stereo not shown) [GB-A-1.169.944, reference compound]")
15
>>> value_reported("CN(CCC(c1ccccc1O)c1ccccc1O)C(C)(C)C")
45
